- Test system: HEK-293T
- ASSAY_EXPLANATION: Multiplex assay against HEK293T
- Assay type: toxicity, cell-based
- PROTOCOL_CONDITIONS: human, 24 h, 10 µM, compound concentration 10 uM, replicate 2
The following compounds are shown together with reported Population Pyknosed Nuclei (%) values.
PARAMETER: Population Pyknosed Nuclei (%)

>  <COMPOUND>
CNc1nc(NCc2ccc(NS(C)(=O)=O)cc2Cl)cc(-c2ccccn2)n1

>  <PARAMETER>
Population Pyknosed Nuclei (%)

>  <RECORDED_VALUE>
71

$$$$
>  <COMPOUND>
C=CC(=O)Nc1cc2c(Nc3ccc(F)c(Cl)c3)ncnc2cc1OCCCN1CCOCC1.Cl.Cl [CANERTINIB DIHYDROCHLORIDE]

>  <PARAMETER>
Population Pyknosed Nuclei (%)

>  <RECORDED_VALUE>
2

$$$$
>  <COMPOUND>
C=CC(=O)Nc1cccc(C(=O)Nc2ccc(Nc3cc(-c4[nH]c(SC)nc4C)ccn3)cc2)c1

>  <PARAMETER>
Population Pyknosed Nuclei (%)

>  <RECORDED_VALUE>
43

$$$$
>  <COMPOUND>
CN1CCN(CCOc2cc(OC3CCOCC3)c3c(Nc4c(Cl)ccc5c4OCO5)ncnc3c2)CC1

>  <PARAMETER>
Population Pyknosed Nuclei (%)

>  <RECORDED_VALUE>
69

$$$$
>  <COMPOUND>
CN1CCN(c2ccc(OC(F)(F)F)c(Nc3ncc4c(n3)-c3c(c(C(N)=O)nn3CCO)CC4)c2)CC1

>  <PARAMETER>
Population Pyknosed Nuclei (%)

>  <RECORDED_VALUE>
54

$$$$
>  <COMPOUND>
COc1cc(-n2cnc3cc(-c4ccc(Cl)cc4)sc3c2=O)ccc1OCCN1CCCC1

>  <PARAMETER>
Population Pyknosed Nuclei (%)

>  <RECORDED_VALUE>
57

$$$$
>  <COMPOUND>
Cl.N#Cc1ccc2[nH]cc(CCCCN3CCN(c4ccc5oc(C(N)=O)cc5c4)CC3)c2c1 [VILAZODONE HYDROCHLORIDE]

>  <PARAMETER>
Population Pyknosed Nuclei (%)

>  <RECORDED_VALUE>
76

$$$$
>  <COMPOUND>
Cc1nc(-c2ccc(-c3ccc(C(=O)N4CCc5cc6c(cc54)C4(CCN(C)CC4)CO6)cc3)c(C)c2)no1

>  <PARAMETER>
Population Pyknosed Nuclei (%)

>  <RECORDED_VALUE>
70

$$$$
>  <COMPOUND>
Cc1[nH]c(/C=C2\C(=O)Nc3ccc(S(=O)(=O)N(C)c4cccc(Cl)c4)cc32)c(C)c1C(=O)N1CCN(C)CC1

>  <PARAMETER>
Population Pyknosed Nuclei (%)

>  <RECORDED_VALUE>
57

$$$$

---

- System: U2OS
- ASSAY_EXPLANATION: Multiplex assay against U2OS
- Assay type: toxicity, cell-based
- PROTOCOL_CONDITIONS: human, 48 h, 10 µM, compound concentration 10 uM, replicate 2
PARAMETER: Population Tubulin-Different-Phenotype (%)

>  <COMPOUND>
COc1cc(-n2cnc3cc(-c4ccc(Cl)cc4)sc3c2=O)ccc1OCCN1CCCC1

>  <RECORDED_VALUE>
96

$$$$
>  <COMPOUND>
Cc1c(-c2ccc(O)cc2)n(Cc2ccc(OCCN3CCCCCC3)cc2)c2ccc(O)cc12 [BAZEDOXIFENE]

>  <RECORDED_VALUE>
100

$$$$
>  <COMPOUND>
COc1ncc(-c2ccc3nccc(-c4ccnnc4)c3c2)cc1NS(=O)(=O)c1ccc(F)cc1F [OMIPALISIB]

>  <RECORDED_VALUE>
72

$$$$
>  <COMPOUND>
C[C@@]1(C(=O)Nc2ccc(F)nc2)CCCN1c1nc(Nc2cc(C3CC3)n[nH]2)c2cccn2n1 [BMS-754807]

>  <RECORDED_VALUE>
91

$$$$
>  <COMPOUND>
Cn1cc(-c2[nH]c3cc(NC(=O)[C@H](N)C4CCCCC4)cc4c3c2C=NNC4=O)cn1

>  <RECORDED_VALUE>
77

$$$$
>  <COMPOUND>
CN(C)CC#Cc1ccc(OCCCc2sc(N3CCc4cccc(C(=O)Nc5nc6ccccc6s5)c4C3)nc2C(=O)O)c(F)c1 [A-1155463]

>  <RECORDED_VALUE>
57

$$$$
>  <COMPOUND>
C[C@@H](NCCCc1cccc(C(F)(F)F)c1)c1cccc2ccccc12.Cl [CINACALCET HYDROCHLORIDE]

>  <RECORDED_VALUE>
94

$$$$
>  <COMPOUND>
CN(C)C(=O)N[C@H]1CC[C@H](CCN2CCN(c3cccc(Cl)c3Cl)CC2)CC1.Cl [CARIPRAZINE HYDROCHLORIDE]

>  <RECORDED_VALUE>
82

$$$$
>  <COMPOUND>
O=C1NCN(c2ccccc2)C12CCN(CCCOc1ccc(F)cc1)CC2 [SPIRAMIDE]

>  <RECORDED_VALUE>
18

$$$$
>  <COMPOUND>
OC1(c2ccc(Cl)cc2)CCN(Cc2c[nH]c3ccccc23)CC1

>  <RECORDED_VALUE>
50

$$$$
>  <COMPOUND>
CN1CCCC(n2nc(Cc3ccc(Cl)cc3)c3ccccc3c2=O)CC1.Cl (stereo not drawn) [AZELASTINE HYDROCHLORIDE]

>  <RECORDED_VALUE>
100

$$$$
>  <COMPOUND>
CN(C)C(=O)/C(C#N)=C/c1ccc(-c2nc3cnc4[nH]ccc4c3n2C2CCCCC2)o1

>  <RECORDED_VALUE>
31

$$$$
>  <COMPOUND>
Cc1csc2c(N[C@@H](C)CN3CCN(S(=O)(=O)c4ccc(Cl)c(Cl)c4)CC3)ncnc12

>  <RECORDED_VALUE>
97

$$$$
